biological target: recombinant soluble homotrimeric HA of A/Japan/305/57 (H2N2) (Influenza A virus A/Japan/305/1957(H2N2)); assay: trimeric HA microarray, transfection supernatant set 5; details: remark: other sources report otherwise
For each entry below, report its Trimeric HA Binding: RLU value.
Numbers only, in RLU.

Below, 3 binders whose answers are already recorded.
TCN-543 (5081_G23) (antibody, V domains shown) VH: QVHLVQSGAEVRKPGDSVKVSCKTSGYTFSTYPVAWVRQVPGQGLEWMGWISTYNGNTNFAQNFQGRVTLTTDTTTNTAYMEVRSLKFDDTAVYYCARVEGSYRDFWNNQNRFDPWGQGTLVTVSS VL: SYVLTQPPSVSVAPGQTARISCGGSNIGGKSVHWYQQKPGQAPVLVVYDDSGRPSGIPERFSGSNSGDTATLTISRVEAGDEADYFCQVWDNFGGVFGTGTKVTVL ... 2780
TCN-545 (5082_I15) (antibody, V domains shown) VH: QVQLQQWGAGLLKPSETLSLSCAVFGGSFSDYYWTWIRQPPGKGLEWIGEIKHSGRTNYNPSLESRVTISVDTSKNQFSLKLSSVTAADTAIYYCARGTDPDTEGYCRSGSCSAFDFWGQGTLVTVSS VL: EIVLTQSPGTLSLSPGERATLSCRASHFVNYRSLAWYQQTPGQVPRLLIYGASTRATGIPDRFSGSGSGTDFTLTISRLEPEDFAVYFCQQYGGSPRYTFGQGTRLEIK ... 1360
TCN-538 (3206_O17) (antibody, V domains shown) VH: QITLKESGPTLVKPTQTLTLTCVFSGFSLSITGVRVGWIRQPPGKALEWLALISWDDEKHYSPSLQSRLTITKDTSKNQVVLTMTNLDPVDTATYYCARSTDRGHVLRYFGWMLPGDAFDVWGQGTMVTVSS VL: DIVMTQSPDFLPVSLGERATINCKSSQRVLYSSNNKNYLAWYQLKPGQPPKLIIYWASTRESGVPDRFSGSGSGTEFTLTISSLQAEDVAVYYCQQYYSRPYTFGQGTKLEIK ... 6620

Here is another binder to look at.
Request: Give its Trimeric HA Binding: RLU value. Item: TCN-546 (5089_L08) (antibody, V domains shown) VH: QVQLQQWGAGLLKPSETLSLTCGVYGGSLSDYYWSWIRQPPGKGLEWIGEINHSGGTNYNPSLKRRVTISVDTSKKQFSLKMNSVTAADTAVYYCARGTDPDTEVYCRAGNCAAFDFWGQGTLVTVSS VL: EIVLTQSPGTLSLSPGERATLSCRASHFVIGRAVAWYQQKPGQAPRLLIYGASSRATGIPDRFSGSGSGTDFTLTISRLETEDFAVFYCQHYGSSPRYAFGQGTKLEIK
Result: 1730
